Where do the numbers come from? From ChEMBL document CHEMBL1914445.

Biological target: Cholinesterase (Equus caballus, UniProt P81908)
Sequence (P81908 whole entry): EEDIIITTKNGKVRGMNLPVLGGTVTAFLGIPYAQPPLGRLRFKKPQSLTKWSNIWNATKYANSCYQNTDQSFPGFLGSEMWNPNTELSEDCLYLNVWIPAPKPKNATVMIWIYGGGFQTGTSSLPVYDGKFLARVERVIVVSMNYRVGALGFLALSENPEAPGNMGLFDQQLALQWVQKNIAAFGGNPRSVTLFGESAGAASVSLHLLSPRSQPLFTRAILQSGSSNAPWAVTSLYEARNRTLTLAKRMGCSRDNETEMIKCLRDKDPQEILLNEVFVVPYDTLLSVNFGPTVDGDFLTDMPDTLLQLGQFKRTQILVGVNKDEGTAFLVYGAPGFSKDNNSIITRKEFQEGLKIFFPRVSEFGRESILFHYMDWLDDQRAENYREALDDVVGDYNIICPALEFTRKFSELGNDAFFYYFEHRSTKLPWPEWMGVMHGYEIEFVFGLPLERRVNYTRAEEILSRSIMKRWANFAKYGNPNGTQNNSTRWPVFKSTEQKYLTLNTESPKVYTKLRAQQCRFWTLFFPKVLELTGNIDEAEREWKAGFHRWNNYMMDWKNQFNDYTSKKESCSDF
Experiment: Inhibition of equine serum BuChE using butyrylthiocholine iodide as substrate preincubated for 10 mins before substrate addition by Ellman's method
We label by threshold. Values of IC50 strictly beneath 6 µM are 1.0. Values of 6 µM and up are 0.0.

Some entries whose results are on file:
Nc1c2c(nc3oc(-c4ccccc4)cc13)CCCC2	1.0
Nc1c2c(nc3oc(-c4ccc(Cl)cc4)cc13)CCCC2	0.0
Nc1c2c(nc3c1cc(-c1ccccc1)n3-c1ccccc1)CCCC2	1.0

Read the next record carefully.
Q. Does this molecule meet the criterion IC50 < 6 µM? `Cc1ccc(-c2cc3c(N)c4c(nc3o2)CCCC4)cc1`
A. 1.0

* * *

IC50 values, listed per item
Molecular target: Acetylcholinesterase (Electrophorus electricus, UniProt O42275)
Sequence (O42275 whole entry): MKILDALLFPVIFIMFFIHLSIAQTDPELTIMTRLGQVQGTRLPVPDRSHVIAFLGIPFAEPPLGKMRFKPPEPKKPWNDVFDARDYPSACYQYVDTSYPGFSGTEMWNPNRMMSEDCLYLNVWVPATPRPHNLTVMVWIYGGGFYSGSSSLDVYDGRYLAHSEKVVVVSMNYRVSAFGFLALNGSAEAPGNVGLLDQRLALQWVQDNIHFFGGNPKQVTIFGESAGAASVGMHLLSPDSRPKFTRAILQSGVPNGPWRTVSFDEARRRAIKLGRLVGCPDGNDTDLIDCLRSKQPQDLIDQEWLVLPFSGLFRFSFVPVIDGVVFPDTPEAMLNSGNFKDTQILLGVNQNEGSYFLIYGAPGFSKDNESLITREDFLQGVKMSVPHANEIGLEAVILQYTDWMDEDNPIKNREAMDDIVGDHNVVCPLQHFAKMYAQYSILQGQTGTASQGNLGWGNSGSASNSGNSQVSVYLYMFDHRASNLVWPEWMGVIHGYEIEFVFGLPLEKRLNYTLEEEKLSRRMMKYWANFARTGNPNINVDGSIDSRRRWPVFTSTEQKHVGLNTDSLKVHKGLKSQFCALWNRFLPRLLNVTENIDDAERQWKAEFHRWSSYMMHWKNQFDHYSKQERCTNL

Reference set (4 entries):
N#Cc1c(-c2ccc(Cl)cc2)oc2nc3c(c(N)c12)CCCC3	> 100 µM
Cc1ccc(-c2cc3c(N)c4c(nc3o2)CCCCC4)cc1	> 30 µM
Nc1c2c(nc3c1cc(-c1ccccc1)n3-c1ccccc1)CCCCC2	> 30 µM
Nc1c2c(nc3c1cc(-c1ccc(Cl)cc1)n3-c1ccccc1)CCCC2	24 µM

Attention now turns to another entry.
Sure, the documented IC50 for `Nc1c2c(nc3oc(-c4ccc(Cl)cc4)cc13)CCCCC2` is > 100 µM

* * *

Biological target: Cholinesterase (Equus caballus, UniProt P81908)
pIC50: −log10 of the molar value.
If the reported pIC50 equals or exceeds 5, assign satisfied. If not, assign not satisfied.

Study these solved cases before continuing.
Nc1c2c(nc3c1cc(-c1ccccc1)n3-c1ccccc1)CCCCC2	satisfied
Nc1c2c(nc3oc(-c4ccc(Cl)cc4)cc13)CCCCC2	not satisfied
N#Cc1c(-c2ccc(Cl)cc2)oc2nc3c(c(N)c12)CCCC3	not satisfied

Q. Form field: pIC50 at least 5? Entry: `Nc1c2c(nc3c1cc(-c1ccc(Cl)cc1)n3-c1ccccc1)CCCC2`
A. not satisfied

* * *

Target: Acetylcholinesterase (Homo sapiens)
Sequence (P22303 whole entry): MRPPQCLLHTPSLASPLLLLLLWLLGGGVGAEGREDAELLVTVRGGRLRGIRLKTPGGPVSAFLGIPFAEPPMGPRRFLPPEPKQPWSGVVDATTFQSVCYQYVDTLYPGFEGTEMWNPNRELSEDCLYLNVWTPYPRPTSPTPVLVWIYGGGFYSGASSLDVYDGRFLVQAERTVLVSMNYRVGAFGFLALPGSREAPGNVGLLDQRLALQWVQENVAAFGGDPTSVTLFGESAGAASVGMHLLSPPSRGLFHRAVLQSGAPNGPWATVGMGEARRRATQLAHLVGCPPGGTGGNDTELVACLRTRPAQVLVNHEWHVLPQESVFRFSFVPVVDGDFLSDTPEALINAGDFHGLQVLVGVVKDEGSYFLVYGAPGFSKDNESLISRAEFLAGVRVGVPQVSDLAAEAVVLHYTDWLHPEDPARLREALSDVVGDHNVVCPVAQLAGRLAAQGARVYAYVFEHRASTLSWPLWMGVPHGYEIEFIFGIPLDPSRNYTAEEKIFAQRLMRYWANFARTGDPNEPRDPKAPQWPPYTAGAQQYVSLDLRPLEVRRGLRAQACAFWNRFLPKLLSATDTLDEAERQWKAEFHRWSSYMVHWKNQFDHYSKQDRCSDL
Experiment: Inhibition of human recombinant AChE using acetylthiocholine as substrate by Ellman's assay in presence of bovine serum albumin
pIC50: −log10 of the molar value.
readoutLabel: pIC50

Reported pIC50 of `N#Cc1c(-c2ccc(Cl)cc2)oc2nc3c(c(N)c12)CCCC3` : < 4.00

* * *

Target: Acetylcholinesterase (Electrophorus electricus, UniProt O42275)
Assay: Mixed-type inhibition of Electrophorus electricus AChE assessed as hydrolysis of acetylthiocholine by Lineweaver-Burk plot analysis
readoutLabel: Ki
Express your answer as a number followed by its unit.

Reported Ki ( `Nc1c2c(nc3c1cc(-c1ccccc1)n3-c1ccccc1)CCCC2` ) = 621 nM

* * *

Acetylcholinesterase (Electrophorus electricus) data, read-out pIC50
pIC50: −log10 of the molar value.

Below: 4 compounds and their reported pIC50.
Cc1ccc(-c2cc3c(N)c4c(nc3o2)CCCC4)cc1	< 4.00
Nc1c2c(nc3oc(-c4ccc(Cl)cc4)cc13)CCCC2	< 4.00
Nc1c2c(nc3oc(-c4ccccc4)cc13)CCCC2	< 4.00
Nc1c2c(nc3oc(-c4ccccc4)cc13)CCCCC2	< 4.00

Proceeding to the next compound to report its pIC50.
Response field pIC50 (Acetylcholinesterase (Electrophorus electricus)) for item `Nc1c2c(nc3c1cc(-c1ccccc1)n3-c1ccccc1)CCCC2` : 6.21
